Attribution: PubChem BioAssay (NCI)

protocol-notes: NCI Yeast Anticancer Drug Screen. Data for the rad50 strain (AID 155);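 note: 0% = growth of vehicle-only cultures of the same strain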
protocol-conditions: S. cerevisiae rad50 strain growth inhibition; at 50.0 µM
This is part of a sample that, as a whole, favours compounds with a hit. Of some 79,000 tested, about 15% had one in any assay. Calls of active or inactive are those of the source. Cut-off read from the data, not from the text of the source: active = growth inhibition above about 70%; inactive = the rest.
Classes used: 1.0 = active, 0.0 = inactive

molecule=COc1ccc(CN2CCCN(Cc3ccc(OC)cc3OC)C2c2cccc([N+](=O)[O-])c2O)c(OC)c1 assigned_category=1.0
molecule="C/C(CCC1CCc2ccccc2C1)=N\\NC(N)=O (centres undefined)" assigned_category=0.0
molecule=O=C1c2ccccc2C(=O)N1CCn1ccc(NC(c2ccccc2)(c2ccccc2)c2ccccc2)nc1=O assigned_category=0.0
molecule=Oc1ccc2ccccc2c1CNc1ccc2ccccc2c1 assigned_category=1.0
molecule=CN1C(=O)c2ccccc2C1(c1ccccc1)c1ccccc1 assigned_category=0.0
molecule=C1CCC(CC[N+]23CC[N+](CCC4CCCC4)(CC2)C3)C1 assigned_category=0.0
molecule=O=[N+]([O-])c1c(Cl)ccc2nsnc12 assigned_category=1.0
molecule=CCC(=O)C(C(=O)CC)c1c(OC(=O)c2ccccc2)ccc(O)c1C(=O)OC assigned_category=0.0
molecule=COc1ccccc1NC(=O)C1=C(C)NC(C)=C(C(=O)Nc2ccccc2OC)C1c1ccc(C2C(C(=O)Nc3ccccc3OC)=C(C)NC(C)=C2C(=O)Nc2ccccc2OC)cc1 assigned_category=1.0
molecule=O=C(N/C(=C\c1ccc2c(c1)OCO2)c1nc2ccccc2s1)c1ccccc1 assigned_category=1.0
molecule=CCCCCCCCCCCCCC1=NCC(C)(C)N1 assigned_category=1.0
molecule=CCCCCCCCCCS(=O)(=O)Nc1ccc(C(=O)NN)cc1 assigned_category=1.0
molecule=CCCCCCCCCCCC(=O)OCCN(CCOC(=O)CCCCCCCCCCC)C(=O)COC(=O)CCCCCCCCCCC assigned_category=1.0
molecule="COc1ccc(C2Cc3cc(OC)ccc3C2=O)cc1 (centres undefined)" assigned_category=0.0
